system: Human bladder cancer (T-24) cell line; assay: MTT cell viability assay, T-24 cells; type: cell-based; conditions: bladder cancer cell line T-24, treatment for 24 h (table title), means of three experiments, read-out: IC50 (μM* ± SD) T-24
Quick list: IC50 per entry.
Respond numerically; units are µM and should not be typed.

# molecule, unit-string, IC50
measured = [
    ("O=C(CN1CCN(c2cc3c(cc2F)c(=O)c(C(=O)O)cn3C2CC2)CC1)NNCC(=O)c1ccccc1 [Compound 10a]", "µM", 45.4),
    ("O=C(CN1CCN(c2cc3c(cc2F)c(=O)c(C(=O)O)cn3C2CC2)CC1)NN1C(=O)c2ccccc2C1=O", "µM", 47),
    ("N=C1CC(=O)NN1C(=O)CN1CCN(c2cc3c(cc2F)c(=O)c(C(=O)O)cn3C2CC2)CC1", "µM", 25.5),
    ("CC(=NNC(=O)CN1CCN(c2cc3c(cc2F)c(=O)c(C(=O)O)cn3C2CC2)CC1)c1cccs1", "µM", 25),
    ("O=C(CN1CCN(c2cc3c(cc2F)c(=O)c(C(=O)O)cn3C2CC2)CC1)NNCC(=O)c1ccc([N+](=O)[O-])cc1 [Compound 10c]", "µM", 10.1),
    ("CC1=NN(C(=O)CN2CCN(c3cc4c(cc3F)c(=O)c(C(=O)O)cn4C3CC3)CC2)C(=O)C1", "µM", 37.3),
]

Okay, next one:
Q: Sample COc1cccc2c1C(=O)c1c(O)c3c(c(O)c1C2=O)C[C@@](O)(C(=O)CO)C[C@@H]3O[C@H]1C[C@H](N)[C@H](O)[C@H](C)O1 [Doxorubicin, reference compound] — what was its IC50?
Ans: 29.1

---

target: human DNA Topo II (Homo sapiens, UniProt P11388); construct: purchased USB Corp., USA; test: In vitro DNA Topo II-mediated relaxation assay (supercoiled pBR322); assay type: biochemical; details: recombinant Topo II relaxation; compound at 0.1 μM; read-out: Percentage of inhibition of Topo II, 0.1 μM
Sequence (P11388 whole entry): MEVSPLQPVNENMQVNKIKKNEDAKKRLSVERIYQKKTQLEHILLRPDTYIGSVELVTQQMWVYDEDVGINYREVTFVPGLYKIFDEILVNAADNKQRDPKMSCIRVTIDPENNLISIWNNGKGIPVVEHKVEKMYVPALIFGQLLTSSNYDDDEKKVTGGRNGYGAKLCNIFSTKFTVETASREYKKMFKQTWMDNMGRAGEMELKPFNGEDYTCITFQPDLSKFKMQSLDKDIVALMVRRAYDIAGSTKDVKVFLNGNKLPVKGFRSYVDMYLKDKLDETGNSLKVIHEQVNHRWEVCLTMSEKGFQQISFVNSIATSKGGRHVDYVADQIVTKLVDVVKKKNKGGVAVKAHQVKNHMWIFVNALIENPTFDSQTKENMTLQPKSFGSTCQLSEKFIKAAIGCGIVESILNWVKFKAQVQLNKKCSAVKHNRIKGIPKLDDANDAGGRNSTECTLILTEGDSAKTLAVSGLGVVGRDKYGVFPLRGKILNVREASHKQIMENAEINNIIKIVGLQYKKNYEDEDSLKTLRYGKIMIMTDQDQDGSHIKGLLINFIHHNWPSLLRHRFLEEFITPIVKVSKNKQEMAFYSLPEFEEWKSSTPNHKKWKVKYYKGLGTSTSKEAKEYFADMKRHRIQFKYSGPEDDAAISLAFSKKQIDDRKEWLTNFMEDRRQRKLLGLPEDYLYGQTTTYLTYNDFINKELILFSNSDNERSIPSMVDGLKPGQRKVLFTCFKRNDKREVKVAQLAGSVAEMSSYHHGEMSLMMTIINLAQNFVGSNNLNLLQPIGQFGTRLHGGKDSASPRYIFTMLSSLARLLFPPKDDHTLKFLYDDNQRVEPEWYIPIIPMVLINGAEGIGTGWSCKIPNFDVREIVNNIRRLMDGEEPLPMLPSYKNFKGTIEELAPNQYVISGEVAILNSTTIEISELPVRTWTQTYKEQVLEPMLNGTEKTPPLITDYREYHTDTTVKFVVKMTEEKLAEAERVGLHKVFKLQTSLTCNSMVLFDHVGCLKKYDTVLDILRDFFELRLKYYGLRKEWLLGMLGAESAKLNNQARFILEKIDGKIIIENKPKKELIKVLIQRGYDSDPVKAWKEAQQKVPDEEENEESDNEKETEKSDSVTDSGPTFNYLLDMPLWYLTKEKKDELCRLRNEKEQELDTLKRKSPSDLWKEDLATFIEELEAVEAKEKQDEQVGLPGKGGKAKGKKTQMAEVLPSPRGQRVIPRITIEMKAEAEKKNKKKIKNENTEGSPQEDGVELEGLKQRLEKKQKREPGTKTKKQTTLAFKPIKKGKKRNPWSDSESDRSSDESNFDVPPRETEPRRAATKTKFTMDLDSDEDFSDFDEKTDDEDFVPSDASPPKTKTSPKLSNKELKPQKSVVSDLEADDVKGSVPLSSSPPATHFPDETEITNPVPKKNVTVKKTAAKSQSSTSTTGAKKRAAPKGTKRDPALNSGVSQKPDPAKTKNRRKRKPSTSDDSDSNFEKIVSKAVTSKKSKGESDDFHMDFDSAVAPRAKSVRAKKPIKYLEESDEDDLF
Use 20% as the dividing line for inhibition at 0.1 µM, with the line itself on the MET side and lower values as NOT MET.

See these solved cases before continuing.
# compound, class
rows = [
    ("CC(=NNC(=O)CN1CCN(c2cc3c(cc2F)c(=O)c(C(=O)O)cn3C2CC2)CC1)c1ccc(Cl)cc1 [Compound 7b]", "NOT MET"),
    ("O=C(CN1CCN(c2cc3c(cc2F)c(=O)c(C(=O)O)cn3C2CC2)CC1)NN=C1CCCCC1 [Compound 7a]", "NOT MET"),
    ("O=C(CN1CCN(c2cc3c(cc2F)c(=O)c(C(=O)O)cn3C2CC2)CC1)NN=C1C(=O)Nc2ccccc21 [Compound 8a]", "MET"),
    ("O=C1CC(=O)N(C(=O)CN2CCN(c3cc4c(cc3F)c(=O)c(C(=O)O)cn4C3CC3)CC2)N1 [Compound 6]", "MET"),
    ("O=C(CN1CCN(c2cc3c(cc2F)c(=O)c(C(=O)O)cn3C2CC2)CC1)NNC(=O)Nc1ccc(Cl)c(C(F)(F)F)c1 [Compound 9a]", "MET"),
]

Now consider a different compound.
Q: Exam item: decide whether the reported inhibition at 0.1 µM for O=C(CN1CCN(c2cc3c(cc2F)c(=O)c(C(=O)O)cn3C2CC2)CC1)NNCC(=O)c1ccc([N+](=O)[O-])cc1 [Compound 10c] is at least 20%.
Ans: MET

---

Entries and their melting point values follow.

# record-smiles, melting point
records = [
    ("O=C(CN1CCN(c2cc3c(cc2F)c(=O)c(C(=O)O)cn3C2CC2)CC1)NN1C(=O)c2ccccc2C1=O", "190 to 192 °C"),
    ("O=C(CN1CCN(c2cc3c(cc2F)c(=O)c(C(=O)O)cn3C2CC2)CC1)NN=C1C(=O)Nc2cccc(Br)c21", "263 to 265 °C"),
    ("O=C(CN1CCN(c2cc3c(cc2F)c(=O)c(C(=O)O)cn3C2CC2)CC1)NN1C(=O)CCC1=O", "184 to 186 °C"),
]

Q: Recorded melting point of `CC(=NNC(=O)CN1CCN(c2cc3c(cc2F)c(=O)c(C(=O)O)cn3C2CC2)CC1)c1cccs1` , please.
Ans: 245 to 247 °C

Q: Could you do the same for `COc1ccc(NC(=S)NNC(=O)CN2CCN(c3cc4c(cc3F)c(=O)c(C(=O)O)cn4C3CC3)CC2)cc1` , please?
Ans: 238 to 240 °C

Q: Same question, `O=C(CN1CCN(c2cc3c(cc2F)c(=O)c(C(=O)O)cn3C2CC2)CC1)NN=C1CCCCC1` this time
Ans: 256 to 258 °C

---

Consider the following compounds and their measured IC50 readings.
system: Human bladder cancer (T-24) cell line; experiment: MTT cell viability assay, T-24 cells; format: cell-based; details: bladder cancer cell line T-24, treatment for 24 h (table title), means of three experiments, read-out: IC50 (μM* ± SD) T-24
Form entry: value (µM) — number only.

# compound, unit-string, IC50
measured = [
    ("O=C(CN1CCN(c2cc3c(cc2F)c(=O)c(C(=O)O)cn3C2CC2)CC1)NN=C1CCCCC1", "µM", 3.88),
    ("O=C(CN1CCN(c2cc3c(cc2F)c(=O)c(C(=O)O)cn3C2CC2)CC1)NNCC(=O)c1cccc(Br)c1 [Compound 10b]", "µM", 17.2),
    ("Cc1cccc(Cl)c1NC(=O)NNC(=O)CN1CCN(c2cc3c(cc2F)c(=O)c(C(=O)O)cn3C2CC2)CC1", "µM", 28.6),
]

Q: Query: IC50; subject: `O=C(CN1CCN(c2cc3c(cc2F)c(=O)c(C(=O)O)cn3C2CC2)CC1)NN=C1C(=O)Nc2ccccc21`
Ans: 3.36

Q: Try this compound too: `COc1ccc(NC(=S)NNC(=O)CN2CCN(c3cc4c(cc3F)c(=O)c(C(=O)O)cn4C3CC3)CC2)cc1`
Ans: 134

Q: Similarly, `CC(=NNC(=O)CN1CCN(c2cc3c(cc2F)c(=O)c(C(=O)O)cn3C2CC2)CC1)c1ccc(Cl)cc1` ?
Ans: 11.5

Q: For `O=C(CN1CCN(c2cc3c(cc2F)c(=O)c(C(=O)O)cn3C2CC2)CC1)NN=c1[nH]c(-c2ccccc2)cs1` then?
Ans: 15.9

Q: What would you report for `Cc1cc(C)n(C(=O)CN2CCN(c3cc4c(cc3F)c(=O)c(C(=O)O)cn4C3CC3)CC2)n1` ?
Ans: 25.9

Q: Next compound up: `O=C(CN1CCN(c2cc3c(cc2F)c(=O)c(C(=O)O)cn3C2CC2)CC1)NNC(=O)Nc1ccc(Cl)c(C(F)(F)F)c1`
Ans: 4.35

Q: Now try `O=C(CN1CCN(c2cc3c(cc2F)c(=O)c(C(=O)O)cn3C2CC2)CC1)NN=C1NC(=O)CS1` .
Ans: 19.5

Q: Also `CC(=NNC(=O)CN1CCN(c2cc3c(cc2F)c(=O)c(C(=O)O)cn3C2CC2)CC1)c1ccc(Cl)s1` , if possible.
Ans: 124

---

melting point listing for selected compounds.

# record-smiles, recorded-result
data = [
    ("CC(=NNC(=O)CN1CCN(c2cc3c(cc2F)c(=O)c(C(=O)O)cn3C2CC2)CC1)c1ccc(Cl)cc1", "178 to 180 °C"),
]

Q: I would be grateful if you could share the reported melting point for `CC1=NN(C(=O)CN2CCN(c3cc4c(cc3F)c(=O)c(C(=O)O)cn4C3CC3)CC2)C(=O)C1` .
Ans: 188 to 190 °C

Q: Also need `CC(=NNC(=O)CN1CCN(c2cc3c(cc2F)c(=O)c(C(=O)O)cn3C2CC2)CC1)c1ccc(N)cc1` , thanks.
Ans: 173 to 175 °C

Hey, just so you know, these numbers are from paper PMC9635472.
